B1: SLC19A2 (parent)
chain: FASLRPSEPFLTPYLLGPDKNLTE

variants of: B1; assay: protein stability index of a GFP-peptide fusion (GPS, HEK-293T) (PSI 1-6); higher = more stable; settings: c terminus: a fixed tail appended;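 note: lentivirally expressed fusions sorted by FACS into six bins by GFP to DsRed ratio, PSI derived from sequencing read proportions per bin multiplied by bin number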
// label = satisfied if protein stability index is not less than 2, otherwise not satisfied

Sample answers from the record:
[[record]]
mutant_code = "L4M"
cat = "not satisfied"

[[record]]
mutant_code = "E24A"
cat = "not satisfied"

[[record]]
mutant_code = "P13G"
cat = "not satisfied"

[[record]]
mutant_code = "P13A"
cat = "satisfied"

[[record]]
mutant_code = "F10E"
cat = "satisfied"

[[record]]
mutant_code = "F10C"
cat = "satisfied"


Exercise: Does the variant `P6W` have recorded protein stability index that is 2 or more?
Key: satisfied

Exercise: Likewise for `S7A` ?
Key: not satisfied

Exercise: Here is the next variant: `T12M`
Key: not satisfied

Exercise: Field entry: `T12F`
Key: not satisfied

Exercise: Cool, now `P18F`
Key: not satisfied

Exercise: Request: `L4G`
Key: satisfied

Exercise: Next entry: `T23I`
Key: not satisfied

Exercise: Now try `Y14Q` .
Key: satisfied

Exercise: Similarly, `S7C` ?
Key: satisfied

Exercise: Can you handle `L16S` next?
Key: satisfied

Exercise: Entry to check: `L11T`
Key: not satisfied

Exercise: # iterate: `K20S`
Key: satisfied

Exercise: `P13N` ?
Key: not satisfied

Exercise: Ok, now `A2S`
Key: satisfied
